Provide the recorded MIC for the entries that follow.
System: Salmonella typhimurium (ATCC 13311)
method: Antibacterial test (MIC), Gram-negative bacteria
Format: cell-based
condition_details: Salmonella enterica, read-out: MIC
One number for each entry, in µg/mL.

>>> recorded_result("CC1(C)S[C@@H]2[C@H](NC(=O)[C@H](N)c3ccc(O)cc3)C(=O)N2[C@H]1C(=O)O [AMPC, Amoxicillin]")
0.3

Next compound, MIC to be filled in.
# lookup: MIC of CC[C@H]1OC(=O)[C@H](C)[C@@H](O[C@H]2C[C@@](C)(OC)[C@@H](O)[C@H](C)O2)[C@H](C)[C@@H](O[C@@H]2O[C@H](C)C[C@H](N(C)C)[C@H]2O)[C@](C)(OC)C[C@@H](C)C(=O)[C@H](C)[C@@H](O)[C@]1(C)O [CAM, Clarithromycin]
25
